Where do the numbers come from? From ChEMBL document CHEMBL4014311.

# half-life annotations
- experimental.details: Half life in rat liver microsomes
- Assay type: ADME, microsome
reported.property: half-life (h)

structure_smiles=CNC(=O)c1c(-c2ccc(F)cc2)oc2ccc(-c3cc(C(=O)NC4(c5ccccn5)CC4)ccc3C)cc12 reported_property=half-life modifier== experimental_result=1.02
structure_smiles=CNC(=O)c1c(-c2ccc(F)cc2)oc2ccc(-c3cc(C(=O)NC4(c5nc(C)no5)CC4)ccc3C)cc12 reported_property=half-life modifier== experimental_result=0.167
structure_smiles=CNC(=O)c1c(-c2ccc(F)cc2)oc2ccc(-c3cc(C(=O)NC4(c5ncccn5)CC4)ccc3C)c(F)c12 reported_property=half-life modifier=> experimental_result=2
structure_smiles=CNC(=O)c1c(-c2ccc(F)cc2)oc2ccc(-c3cc(C(=O)NC4(c5ncccn5)CC4)ccc3C)cc12 reported_property=half-life modifier== experimental_result=1.43

* * *

- experimental.details: AUC in Sprague-Dawley rat at 6 mg/kg, po administered via gavage by LC/MS/MS analysis
- Format: ADME, organism-based
- recorded.conditions: in vivo
Recorded measurements of AUC, one per entry
reported.property: AUC (µM·h)

compound="CNC(=O)c1c(-c2ccc(F)cc2)oc2ccc(-c3cc(C(=O)NC4(c5ncccn5)CC4)ccc3C)c(F)c12 [BMS-929075]" reported_property=AUC unit_abbrev=µM·h experimental_result=54.5
compound=CNC(=O)c1c(-c2ccc(F)cc2)oc2ccc(-c3cc(C(=O)NC4(c5ncccn5)CC4)ccc3C)cc12 reported_property=AUC unit_abbrev=µM·h experimental_result=48.7

* * *

- Test system: Hepatitis C virus
- experimental.details: Antiviral activity against HCV genotype 1b infected in human HuH7 cells after 3 days by luciferase reporter assay
- Assay type: functional, cell-based, Hepacivirus hominis
- recorded.conditions: Hepatitis C virus, genotype 1b, Huh-7, 72 h; read-out: EC50
pEC50: −log10 of the molar value.
reported.property: pEC50

structure_smiles=CNC(=O)c1c(-c2ccc(F)cc2)oc2ccc(-c3cccc(C(=O)NC4(c5ccccc5)CC4)c3)cc12 reported_property=pEC50 modifier== experimental_result=8.44
structure_smiles=CNC(=O)c1c(-c2ccc(F)cc2)oc2ccc(-c3cc(C(=O)NC4(c5ccccc5)CC4)ccc3C)cc12 reported_property=pEC50 modifier== experimental_result=8.89
structure_smiles=CCNC(=O)c1cccc(-c2ccc3oc(-c4ccc(F)cc4)c(C(=O)NC)c3c2)c1 reported_property=pEC50 modifier== experimental_result=6.48
structure_smiles=CNC(=O)c1c(-c2ccc(F)cc2)oc2ccc(-c3cc(C(=O)NC4(c5nc(C)no5)CC4)ccc3C)cc12 reported_property=pEC50 modifier== experimental_result=9.09
structure_smiles=CNC(=O)c1c(-c2ccc(F)cc2)oc2ccc(-c3cc(C(=O)NC4(c5ccncn5)CC4)ccc3C)cc12 reported_property=pEC50 modifier== experimental_result=8.72
structure_smiles=CNC(=O)c1c(-c2ccc(F)cc2)oc2ccc(-c3cccc(C(N)=O)c3)cc12 reported_property=pEC50 modifier=< experimental_result=5.43
structure_smiles=CNC(=O)c1c(-c2ccc(F)cc2)oc2ccc(-c3cccc(C(=O)NC(C)(C)c4ccccc4)c3)cc12 reported_property=pEC50 modifier== experimental_result=8.00
structure_smiles=CNC(=O)c1c(-c2ccc(F)cc2)oc2ccc(-c3ccc(C(=O)O)cc3)cc12 reported_property=pEC50 modifier== experimental_result=5.35

* * *

- experimental.details: Clearance in Sprague-Dawley rat at 2 mg/kg, iv by LC/MS/MS analysis
- Assay type: ADME, organism-based
- recorded.conditions: in vivo
reported.property: clearance

compound="CNC(=O)c1c(-c2ccc(F)cc2)oc2ccc(-c3cc(C(=O)NC4(c5ncccn5)CC4)ccc3C)c(F)c12 [BMS-929075]" experimental_result="1.7 mL/min/kg"

* * *

Reported pIC50 values for a set of molecules
- test.system: Voltage-gated inwardly rectifying potassium channel KCNH2 (Homo sapiens)
- Sequence (Q12809 whole entry): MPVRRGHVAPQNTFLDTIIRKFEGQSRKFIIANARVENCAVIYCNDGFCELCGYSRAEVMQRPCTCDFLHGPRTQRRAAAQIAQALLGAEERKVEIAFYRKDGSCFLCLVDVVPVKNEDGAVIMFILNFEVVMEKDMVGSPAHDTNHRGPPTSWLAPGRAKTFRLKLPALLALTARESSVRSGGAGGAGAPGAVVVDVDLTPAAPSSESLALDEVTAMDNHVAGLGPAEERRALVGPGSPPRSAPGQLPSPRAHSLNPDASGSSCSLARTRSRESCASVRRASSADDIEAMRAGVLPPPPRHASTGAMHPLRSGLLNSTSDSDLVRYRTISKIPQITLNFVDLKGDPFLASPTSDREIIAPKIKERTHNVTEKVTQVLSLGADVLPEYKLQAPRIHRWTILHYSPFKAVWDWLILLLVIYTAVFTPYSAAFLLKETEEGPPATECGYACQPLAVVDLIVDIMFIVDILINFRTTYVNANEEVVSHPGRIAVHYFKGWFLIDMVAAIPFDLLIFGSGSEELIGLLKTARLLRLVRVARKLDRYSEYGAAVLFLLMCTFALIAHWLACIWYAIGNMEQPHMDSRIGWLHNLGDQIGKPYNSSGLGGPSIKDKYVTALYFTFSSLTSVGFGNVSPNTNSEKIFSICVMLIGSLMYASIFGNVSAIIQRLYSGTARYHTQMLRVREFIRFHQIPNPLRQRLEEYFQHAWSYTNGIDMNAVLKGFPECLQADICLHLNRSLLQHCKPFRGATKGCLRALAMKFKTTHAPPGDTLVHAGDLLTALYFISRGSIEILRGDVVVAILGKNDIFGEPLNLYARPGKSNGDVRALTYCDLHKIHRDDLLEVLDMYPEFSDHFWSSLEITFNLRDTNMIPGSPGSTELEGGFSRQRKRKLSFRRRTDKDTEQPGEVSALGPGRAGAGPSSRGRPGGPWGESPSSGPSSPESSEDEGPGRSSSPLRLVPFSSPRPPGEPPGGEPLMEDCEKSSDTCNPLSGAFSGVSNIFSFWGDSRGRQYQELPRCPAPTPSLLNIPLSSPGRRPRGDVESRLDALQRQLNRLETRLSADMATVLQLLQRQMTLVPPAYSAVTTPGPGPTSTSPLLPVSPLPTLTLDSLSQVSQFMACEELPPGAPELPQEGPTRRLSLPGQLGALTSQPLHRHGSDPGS
- experimental.details: Inhibition of human ERG by thallium flux assay
pIC50: −log10 of the molar value.
reported.property: pIC50

structure_smiles=CNC(=O)c1c(-c2ccc(F)cc2)oc2ccc(-c3cc(C(=O)NC4(c5ncccn5)CC4)ccc3C)cc12 experimental_result=5.32
structure_smiles=CNC(=O)c1c(-c2ccc(F)cc2)oc2ccc(-c3cc(C(=O)NC4(c5ncccn5)CC4)ccc3C)c(F)c12 experimental_result=4.62

* * *

- Test system: Hepatitis C virus
- experimental.details: Antiviral activity against HCV genotype 1a infected in human HuH7 cells after 3 days by luciferase reporter assay
- Type: functional, cell-based, Hepacivirus hominis, subtype 1a
- recorded.conditions: Hepatitis C virus, subtype 1a, Huh-7, 72 h; read-out: EC50
pEC50: −log10 of the molar value.
# Lookup of reported pEC50 keyed by entry
reported.property: pEC50

molecule=CNC(=O)c1c(-c2ccc(F)cc2)oc2ccc(-c3cc(C(=O)NC4(c5ccccc5)CC4)ccc3Cl)cc12 reported_property=pEC50 experimental_result=8.21
molecule=CNC(=O)c1c(-c2ccc(F)cc2)oc2ccc(-c3cc(C(=O)NC4(c5ccccn5)CC4)ccc3C)cc12 reported_property=pEC50 experimental_result=8.55
molecule=CNC(=O)c1c(-c2ccc(F)cc2)oc2ccc(-c3cc(C(=O)NC4(c5nc(C)no5)CC4)ccc3C)cc12 reported_property=pEC50 experimental_result=8.92
molecule=CNC(=O)c1c(-c2ccc(F)cc2)oc2ccc(-c3cccc(C(=O)NC4(c5ccccc5)CC4)c3)cc12 reported_property=pEC50 experimental_result=7.44
molecule=CNC(=O)c1c(-c2ccc(F)cc2)oc2ccc(-c3cc(C(=O)NC4(c5ccccc5)CC4)ccc3OC)cc12 reported_property=pEC50 experimental_result=8.10
molecule=CNC(=O)c1c(-c2ccc(F)cc2)oc2ccc(-c3cc(C(=O)NC4(c5cccnc5)CC4)ccc3C)cc12 reported_property=pEC50 experimental_result=7.77
molecule="CNC(=O)c1c(-c2ccc(F)cc2)oc2ccc(-c3cc(C(=O)NC4(c5ncccn5)CC4)ccc3C)c(F)c12 [BMS-929075]" reported_property=pEC50 experimental_result=8.05
molecule="CNC(=O)c1c(-c2ccc(F)cc2)oc2ccc(-c3cccc(C(=O)NC(C)c4ccccc4)c3)cc12 (stereo not drawn)" reported_property=pEC50 experimental_result=6.22

* * *

Recorded concentration at 6 h by entry
- experimental.details: Drug uptake in Sprague-Dawley rat liver at 6 mg/kg, po via gavage after 6 hrs by LC-MS/MS analysis
- Type: ADME, organism-based
- recorded.conditions: read-out: Drug uptake
reported.property: concentration at 6 h (µM)

structure_smiles=CNC(=O)c1c(-c2ccc(F)cc2)oc2ccc(-c3cc(C(=O)NC4(c5ccccn5)CC4)ccc3C)cc12 reported_property="concentration at 6 h" unit_abbrev=µM experimental_result=15.7
structure_smiles=CNC(=O)c1c(-c2ccc(F)cc2)oc2ccc(-c3cc(C(=O)NC4(c5ncccn5)CC4)ccc3C)c(F)c12 reported_property="concentration at 6 h" unit_abbrev=µM experimental_result=15.1
structure_smiles=CNC(=O)c1c(-c2ccc(F)cc2)oc2ccc(-c3cc(C(=O)NC4(c5ncccn5)CC4)ccc3C)cc12 reported_property="concentration at 6 h" unit_abbrev=µM experimental_result=8.7

* * *

Consider the following compounds and their measured Cmax readings.
- experimental.details: Cmax in Sprague-Dawley rat at 6 mg/kg, po administered via gavage by LC/MS/MS analysis
- Assay type: ADME, organism-based
- Design: dose 6 mg/kg, route oral
- recorded.conditions: in vivo
reported.property: Cmax (µM)

compound="CNC(=O)c1c(-c2ccc(F)cc2)oc2ccc(-c3cc(C(=O)NC4(c5ncccn5)CC4)ccc3C)c(F)c12 [BMS-929075]" experimental_result=7.5
compound=CNC(=O)c1c(-c2ccc(F)cc2)oc2ccc(-c3cc(C(=O)NC4(c5ncccn5)CC4)ccc3C)cc12 experimental_result=6.7

* * *

- test.system: hERG (Homo sapiens, UniProt Q12809)
- experimental.details: Inhibition of human ERG at 10 uM by patch clamp assay
reported.property: inhibition at 10 µM (%)

structure_smiles=CNC(=O)c1c(-c2ccc(F)cc2)oc2ccc(-c3cc(C(=O)NC4(c5ncccn5)CC4)ccc3C)cc12 reported_property="inhibition at 10 µM" experimental_result=96

* * *

- test.system: Cytochrome P450 2C8 (Homo sapiens, UniProt P10632)
- Sequence (P10632 whole entry): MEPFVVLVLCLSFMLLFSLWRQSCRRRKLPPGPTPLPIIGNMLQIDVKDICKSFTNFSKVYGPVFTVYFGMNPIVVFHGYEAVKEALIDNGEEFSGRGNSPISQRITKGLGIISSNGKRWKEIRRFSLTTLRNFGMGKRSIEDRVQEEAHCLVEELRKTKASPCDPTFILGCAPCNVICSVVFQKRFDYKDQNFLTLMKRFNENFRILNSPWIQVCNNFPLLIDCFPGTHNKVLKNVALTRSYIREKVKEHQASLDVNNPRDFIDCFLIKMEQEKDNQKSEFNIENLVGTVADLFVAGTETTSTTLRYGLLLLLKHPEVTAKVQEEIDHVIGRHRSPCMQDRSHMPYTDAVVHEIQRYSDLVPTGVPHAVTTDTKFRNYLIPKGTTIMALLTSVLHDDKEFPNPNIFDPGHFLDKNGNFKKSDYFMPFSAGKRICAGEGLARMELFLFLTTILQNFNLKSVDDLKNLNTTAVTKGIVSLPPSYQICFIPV
reported.property: IC50 (nM)

structure_smiles=CNC(=O)c1c(-c2ccc(F)cc2)oc2ccc(-c3cc(C(=O)NC4(c5ccccn5)CC4)ccc3C)cc12 experimental_result=1000
structure_smiles=CNC(=O)c1c(-c2ccc(F)cc2)oc2ccc(-c3cc(C(=O)NC4(c5cccnc5)CC4)ccc3C)cc12 experimental_result=350
structure_smiles=CNC(=O)c1c(-c2ccc(F)cc2)oc2ccc(-c3cc(C(=O)NC4(c5ccccc5)CC4)ccc3C)cc12 experimental_result=1500
structure_smiles=CNC(=O)c1c(-c2ccc(F)cc2)oc2ccc(-c3cc(C(=O)NC4(c5ccncc5)CC4)ccc3C)cc12 experimental_result=26
structure_smiles=CNC(=O)c1c(-c2ccc(F)cc2)oc2ccc(-c3cc(C(=O)NC4(c5ncccn5)CC4)ccc3C)cc12 experimental_result=3900
structure_smiles=CNC(=O)c1c(-c2ccc(F)cc2)oc2ccc(-c3cc(C(=O)NC4(c5ncccn5)CC4)ccc3C)c(F)c12 experimental_result=6700
